Could you please report measured inhibition at 1 µM for the items listed next?
system: A2780 cells; assay: In vitro proliferation suppression test (CellTiter-Glo); format: cell-based, human; conditions: Homo sapiens, 72 h, A2780 cell proliferation inhibitory rate at 1 μM test compound, three days
One number for each entry, in %.

Some entries whose results are on file:
molecule	valueObserved
COc1ncc(-c2cnc(N(C(=O)OCCN(C)C)[C@H]3CC[C@H](Nc4ncc(C(F)(F)F)c(-c5cncc(S(C)(=O)=O)c5)n4)CC3)cn2)cn1 [Example 767]	99
COc1ncc(-c2cnc(N(C(=O)OCC(F)F)[C@H]3CC[C@H](Nc4ncc(C(F)(F)F)c(-c5cncc(S(C)(=O)=O)c5)n4)CC3)cn2)cn1 [Example 766]	99
COc1ncc(-c2cnc(N(C(=O)NCC3(F)CC3)[C@H]3CC[C@H](Nc4ncc(C(F)(F)F)c(-c5n[nH]cc5Cl)n4)CC3)cn2)cn1 [Example 742]	96
Cn1cc(-c2ccc(N(C(=O)NCc3ccccc3)[C@H]3CC[C@H](Nc4ncc(C(F)(F)F)c(N5CCC6(COC6)C5)n4)CC3)nc2)cn1 [Example 566]	98
COc1ncc(-c2cnc(N(C(=O)NCC(F)(F)F)[C@H]3CC[C@H](Nc4ncc(C(F)(F)F)c(-c5n[nH]cc5Cl)n4)CC3)cn2)cn1 [Example 743]	95

Go through the list and state inhibition at 1 µM for each entry.
1. CCOCC(=O)N(c1cnc(-c2cnc(OC)nc2)cn1)[C@H]1CC[C@H](Nc2ncc(C(F)(F)F)c(-c3cncc(S(C)(=O)=O)c3)n2)CC1 [Example 827]
2. CCNC(=O)N(c1cnc(-c2cnc(OC)nc2)cn1)[C@H]1CC[C@H](Nc2ncc(C(F)(F)F)c(-c3cncc(S(C)(=O)=O)c3)n2)CC1 [Example 799]
3. COc1ncc(-c2ccc(N(C(=O)NCC(F)F)[C@H]3CC[C@H](Nc4ncc(C(F)(F)F)c(-c5n[nH]cc5Cl)n4)CC3)nc2)cn1 [Example 693]
4. COc1ncc(-c2cnc(N(C(=O)NCc3ccccc3)[C@H]3CC[C@H](Nc4ncc(C#N)c(N5CCCC(O)CC5)n4)CC3)nc2)cn1 (stereo partly drawn) [Example 596]
5. Cn1cc(-c2ccc(N(C(=O)NCc3ccccc3)[C@H]3CC[C@H](Nc4ncc(C#N)c(-c5cncc(S(C)(=O)=O)c5)n4)CC3)nc2)cn1 [Example 440]

1: 99; 2: 99; 3: 98; 4: 99; 5: 98

Provide the reported inhibition at 1 µM of each entry below, same order.
1. COc1ncc(-c2cnc(N(C(=O)NCC(C)(C)O)[C@H]3CC[C@H](Nc4ncc(C(F)(F)F)c(-c5ccn(C(F)F)n5)n4)CC3)cn2)cn1 [Example 804]
2. COc1ncc(-c2ccc(N(C(=O)NCc3ccccc3)[C@H]3CC[C@H](Nc4ncc(C(F)(F)F)c(NC5COC5)n4)CC3)nc2)cn1 [Example 589]

96
97
